PET hydrolysis for assorted sequences
Test: PET hydrolysis, aromatic products released after 48 h (umol product/mg enzyme); higher = more PET depolymerization activity
Conditions: substrate: aFilm; 60 °C; pH 4.5
Quantity Kind: PET hydrolysis

| Sequence Input | Test Result |
| --- | --- |
| GQAPTTAAQVRASAFAKGPDPTEQTIKAQRGPFQIKQLSVAAQSGRGFNRGTIYYPTDTGQGTYGAIAVIPGFLEPEFITSWYGPTLASYGFVVMTLEPFAITDFPDPRSNQLLAAVDWLAADSPVKAQVDPNRLAVMGHSMGGGGALLAASKRPSLKAAVPLAPWNLYADFAGVTVPTLVIGADNDFIAPVGMHADPMYASIKASPNEGYLKLKNADHFTVNSYSATLTKFTVSWMKRYVDEDTRYTQFLCPAPQPDPSFASFQMTCPS [TEP173] | < 3 |
| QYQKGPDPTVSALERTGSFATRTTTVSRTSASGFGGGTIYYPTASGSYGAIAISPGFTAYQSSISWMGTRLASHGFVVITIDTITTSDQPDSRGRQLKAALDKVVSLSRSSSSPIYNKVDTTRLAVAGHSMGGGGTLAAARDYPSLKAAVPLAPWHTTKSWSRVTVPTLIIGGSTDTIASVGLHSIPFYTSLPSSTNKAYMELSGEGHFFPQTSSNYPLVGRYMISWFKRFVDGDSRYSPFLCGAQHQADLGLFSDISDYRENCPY [ESM169] | < 3 |
| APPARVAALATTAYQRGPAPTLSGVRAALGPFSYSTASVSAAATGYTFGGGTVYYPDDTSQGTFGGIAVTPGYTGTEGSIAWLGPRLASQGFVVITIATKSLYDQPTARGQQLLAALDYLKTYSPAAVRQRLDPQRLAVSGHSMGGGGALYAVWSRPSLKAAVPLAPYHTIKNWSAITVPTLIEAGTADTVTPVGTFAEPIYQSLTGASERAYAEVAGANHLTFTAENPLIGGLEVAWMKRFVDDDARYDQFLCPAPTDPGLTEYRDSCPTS [TEP101] | < 3 |

* * *

Experiment: PET hydrolysis, aromatic products released after 48 h (umol product/mg enzyme); higher = more PET depolymerization activity
Details: substrate: cryPow; 40 °C; pH 7.5

| Sequence Input | PET hydrolysis |
| --- | --- |
| QYQKGPDPTTSSLERAGSFATRTISVSSLAASGFGGGRIYYPTASGSYGVIAVSPGYTGTASTMYFWGERLSSHGFVVIVIETNTLLDQPGSRANQLMAALNYTVSQGNSRTSALYGKVDGNRRGVAGHSMGGGGTLIAAADNASLKAAVPMAPWNLSSLSFRGIRVPTMIFGCQSDAIAPVNTHAVPFYNAIPSSTKKGYVEMRLDDHFCVMNGGGHYETLGKLGISWFKRFIDEDTRYSKFLCGTEYNATVRSTEVSDSKNNCPY [DP039] | 4 |
| ADNPYQRGPDPTPASVGASRGTFATAQVSVPAGNGFGGGVIYYPTDTSQGRFGAVAVVPGYTATWAAEGAWMGPWLASFGFVVIGIDTNSRNDWDTARGTQLLAALDYLTQRSSVRDRVDASRAAVMGHSMGGGGAIYAALQRPSLKTTVGLAPFSASQTLNNMRVPTMLLAGQNDGTTTPASIRNYYGQVPSGVEKAYLELTGAGHGFPTSNNPTMMRNVIPWLKIFVDSDTRYTQFLCPLSNTNGIRSYESTCPLVPSPVPTDPPTSAPPTSTPPTTPPPTTPPPTTPAPGGPCAASYRTVNSWSGGFQGEVTVRAGGAPINGWTVRWTLGGGQSISQVWNGTLSTSGSTATVRNAPYNGSLPASGSTTFGFIANGSPSAPTLTCASP [TEP013] | 53.5 |
